Reported values of melting point for individual entries
measured parameter: melting point

{"columns": ["compound", "val"],
 "data": [
  ["CC(C)(COC(=O)CC[C@H](N)C(=O)O)CO[N+](=O)[O-].Cl", "132 to 135 °C"],
  ["Cl.N[C@@H](CCC(=O)OC(CO[N+](=O)[O-])CO[N+](=O)[O-])C(=O)O", "139 °C (dec.)"],
  ["Cl.N[C@@H](CCC(=O)N1CCC(CCO[N+](=O)[O-])CC1)C(=O)O", "137 to 140 °C"],
  ["CC(C)(CNC(=O)CC[C@H](N)C(=O)O)CO[N+](=O)[O-].Cl", "65 to 68 °C"],
  ["Cl.N[C@@H](CCC(=O)OCCCO[N+](=O)[O-])C(=O)O", "137 to 139 °C"],
  ["Cl.N[C@@H](CCC(=O)N1CCCC(CO[N+](=O)[O-])C1)C(=O)O (stereo partly drawn)", "70 to 72 °C (dec.)"]
]}
